measured_on: HLA-B*15:01
method_description: IEDB peptide-MHC binding, purified MHC/competitive/fluorescence; filed as Kd, often an IC50 or EC50 that approximates it; bounds were set here for any values at or beyond the usual limits of such assays
experimental_setup: source organism: Salmonella enterica subsp. enterica serovar Typhimurium str. LT2
measurement_name: Kd

>>> endpoint_result("ILNSDDEQA")
"≥ 20 µM"

----------
measured_on: HLA-A*29:02
method_description: IEDB peptide-MHC binding, purified MHC/direct/fluorescence; filed as Kd, often an IC50 or EC50 that approximates it; bounds were set here for any values at or beyond the usual limits of such assays
experimental_setup: source organism: Convict Creek 107 virus
measurement_name: Kd

>>> endpoint_result("LFPELECFF")
"≥ 20 µM"

----------
measured_on: HLA-B*07:02
method_description: IEDB peptide-MHC binding, purified MHC/direct/fluorescence; filed as Kd, often an IC50 or EC50 that approximates it; bounds were set here for any values at or beyond the usual limits of such assays
experimental_setup: source organism: Mycobacterium tuberculosis str. Haarlem
measurement_name: Kd (µM)

>>> endpoint_result("SMRFESSPH")
5.35

----------
measured_on: HLA-B*46:01
method_description: IEDB peptide-MHC binding, purified MHC/competitive/fluorescence; filed as Kd, often an IC50 or EC50 that approximates it; bounds were set here for any values at or beyond the usual limits of such assays
experimental_setup: source organism: Giardia lamblia ATCC 50803
measurement_name: Kd

>>> endpoint_result("ALGGSCHTT")
"≥ 20 µM"

----------
measured_on: HLA-B*58:01
method_description: IEDB peptide-MHC binding, purified MHC/direct/fluorescence; filed as Kd, often an IC50 or EC50 that approximates it; bounds were set here for any values at or beyond the usual limits of such assays
experimental_setup: source organism: Francisella tularensis subsp. tularensis FSC033
pKd: −log10 of the molar value.
measurement_name: pKd

>>> endpoint_result("ETLDVFGPI")
"≤ 4.70"

----------
measured_on: HLA-B*54:01
method_description: IEDB peptide-MHC binding, purified MHC/competitive/radioactivity; filed as Kd, often an IC50 or EC50 that approximates it; bounds were set here for any values at or beyond the usual limits of such assays
experimental_setup: source organism: Triticum aestivum
measurement_name: Kd (nM)

>>> endpoint_result("LPYPQPQPF")
742

----------
measured_on: HLA-B*54:01
method_description: IEDB peptide-MHC binding, purified MHC/competitive/radioactivity; filed as Kd, often an IC50 or EC50 that approximates it; bounds were set here for any values at or beyond the usual limits of such assays
experimental_setup: source organism: SARS coronavirus Tor2
Quick list: Kd per entry.
measurement_name: Kd (µM)

>>> endpoint_result("LPFTLGIMAI")
0.15
>>> endpoint_result("TPLVQPVGAL")
0.494
>>> endpoint_result("HPLADNKFAL")
7.11

----------
measured_on: HLA-B*39:01
method_description: IEDB peptide-MHC binding, purified MHC/competitive/fluorescence; filed as Kd, often an IC50 or EC50 that approximates it; bounds were set here for any values at or beyond the usual limits of such assays
experimental_setup: source organism: Mus musculus
measurement_name: Kd

>>> endpoint_result("LVDENQSWY")
"≥ 20 µM"

----------
measured_on: HLA-B*18:01
method_description: IEDB peptide-MHC binding, purified MHC/direct/fluorescence; filed as Kd, often an IC50 or EC50 that approximates it; bounds were set here for any values at or beyond the usual limits of such assays
experimental_setup: source organism: Orthohantavirus hantanense
pKd: −log10 of the molar value.
measurement_name: pKd

>>> endpoint_result("IRKPKHLYV")
"≤ 4.70"

----------
Quick list: pKd per entry.
measured_on: HLA-B*40:01
method_description: IEDB peptide-MHC binding, purified MHC/competitive/radioactivity; filed as Kd, often an IC50 or EC50 that approximates it; bounds were set here for any values at or beyond the usual limits of such assays
experimental_setup: source organism: Dengue virus 1 Singapore/S275/1990
pKd: −log10 of the molar value.
measurement_name: pKd

>>> endpoint_result("LENDMKFTV")
6.91
>>> endpoint_result("MESEGIFSP")
5.64

----------
measured_on: HLA-A*69:01
method_description: IEDB peptide-MHC binding, purified MHC/direct/fluorescence; filed as Kd, often an IC50 or EC50 that approximates it; bounds were set here for any values at or beyond the usual limits of such assays
experimental_setup: source organism: Escherichia coli
measurement_name: Kd

>>> endpoint_result("SHDTIGPYY")
"≥ 20 µM"

----------
Quick list: pKd per entry.
measured_on: HLA-A*03:01
method_description: IEDB peptide-MHC binding, purified MHC/direct/fluorescence; filed as Kd, often an IC50 or EC50 that approximates it; bounds were set here for any values at or beyond the usual limits of such assays
experimental_setup: source organism: Giardia lamblia ATCC 50803
pKd: −log10 of the molar value.
measurement_name: pKd

>>> endpoint_result("TTHSKGATK")
6.47
>>> endpoint_result("EIRHRSGIQ")
5.70

----------
measured_on: HLA-A*68:02
method_description: IEDB peptide-MHC binding, purified MHC/competitive/radioactivity; filed as Kd, often an IC50 or EC50 that approximates it; bounds were set here for any values at or beyond the usual limits of such assays
experimental_setup: source organism: Trypanosoma cruzi
Quick list: Kd per entry.
measurement_name: Kd (nM)

>>> endpoint_result("GLLPSLLLLG")
3750
>>> endpoint_result("FVNHRFTLV")
89.3

----------
measured_on: HLA-A*23:01
method_description: IEDB peptide-MHC binding, purified MHC/competitive/radioactivity; filed as Kd, often an IC50 or EC50 that approximates it; bounds were set here for any values at or beyond the usual limits of such assays
experimental_setup: source organism: Mammarenavirus caliense
pKd: −log10 of the molar value.
measurement_name: pKd

>>> endpoint_result("YQPDTGNYI")
5.24

----------
Quick list: Kd per entry.
measured_on: HLA-B*51:01
method_description: IEDB peptide-MHC binding, purified MHC/competitive/radioactivity; filed as Kd, often an IC50 or EC50 that approximates it; bounds were set here for any values at or beyond the usual limits of such assays
experimental_setup: source organism: SARS coronavirus Tor2
measurement_name: Kd (nM)

>>> endpoint_result("TPLVQPVGAL")
2340
>>> endpoint_result("LPFTLGIMAI")
1210
>>> endpoint_result("HPLADNKFAL")
991

----------
measured_on: HLA-B*18:01
method_description: IEDB peptide-MHC binding, purified MHC/competitive/radioactivity; filed as Kd, often an IC50 or EC50 that approximates it; bounds were set here for any values at or beyond the usual limits of such assays
experimental_setup: source organism: Mammarenavirus juninense
measurement_name: Kd

>>> endpoint_result("SDFLISEML")
"≥ 56 µM"

----------
measured_on: HLA-A*11:01
method_description: IEDB peptide-MHC binding, purified MHC/direct/fluorescence; filed as Kd, often an IC50 or EC50 that approximates it; bounds were set here for any values at or beyond the usual limits of such assays
experimental_setup: source organism: Haemophilus influenzae
measurement_name: Kd

>>> endpoint_result("LAEQFSGEY")
"≥ 20 µM"

----------
measured_on: HLA-B*15:01
method_description: IEDB peptide-MHC binding, purified MHC/direct/fluorescence; filed as Kd, often an IC50 or EC50 that approximates it; bounds were set here for any values at or beyond the usual limits of such assays
experimental_setup: source organism: Aggregatibacter actinomycetemcomitans
measurement_name: Kd (µM)

>>> endpoint_result("RSEVELCIY")
6.28

----------
measured_on: HLA-B*15:17
method_description: IEDB peptide-MHC binding, purified MHC/competitive/fluorescence; filed as Kd, often an IC50 or EC50 that approximates it; bounds were set here for any values at or beyond the usual limits of such assays
experimental_setup: source organism: Vibrio cholerae V52
pKd: −log10 of the molar value.
measurement_name: pKd

>>> endpoint_result("TTILGLLPM")
7.41

----------
measured_on: HLA-B*46:01
method_description: IEDB peptide-MHC binding, purified MHC/competitive/fluorescence; filed as Kd, often an IC50 or EC50 that approximates it; bounds were set here for any values at or beyond the usual limits of such assays
experimental_setup: source organism: Vibrio cholerae MAK 757
pKd: −log10 of the molar value.
measurement_name: pKd

>>> endpoint_result("IAAPNMIAV")
6.24

----------
measured_on: HLA-A*03:01
method_description: IEDB peptide-MHC binding, purified MHC/direct/fluorescence; filed as Kd, often an IC50 or EC50 that approximates it; bounds were set here for any values at or beyond the usual limits of such assays
experimental_setup: source organism: Aggregatibacter actinomycetemcomitans
pKd: −log10 of the molar value.
measurement_name: pKd

>>> endpoint_result("RSEVELCIY")
"≤ 4.70"

----------
measured_on: HLA-B*46:01
method_description: IEDB peptide-MHC binding, purified MHC/direct/fluorescence; filed as Kd, often an IC50 or EC50 that approximates it; bounds were set here for any values at or beyond the usual limits of such assays
experimental_setup: source organism: Mycobacterium tuberculosis
Quick list: Kd per entry.
measurement_name: Kd

>>> endpoint_result("SMRFESSPH")
"15.5 µM"
>>> endpoint_result("MPRLSRNAA")
"≥ 20 µM"
>>> endpoint_result("RPPMVTSGL")
"≥ 20 µM"
